These entries and their values trace back to patent US20090298834A1.

- Target or system: human α1G T-type channels (Homo sapiens, UniProt O43497)
- Sequence (O43497 whole entry): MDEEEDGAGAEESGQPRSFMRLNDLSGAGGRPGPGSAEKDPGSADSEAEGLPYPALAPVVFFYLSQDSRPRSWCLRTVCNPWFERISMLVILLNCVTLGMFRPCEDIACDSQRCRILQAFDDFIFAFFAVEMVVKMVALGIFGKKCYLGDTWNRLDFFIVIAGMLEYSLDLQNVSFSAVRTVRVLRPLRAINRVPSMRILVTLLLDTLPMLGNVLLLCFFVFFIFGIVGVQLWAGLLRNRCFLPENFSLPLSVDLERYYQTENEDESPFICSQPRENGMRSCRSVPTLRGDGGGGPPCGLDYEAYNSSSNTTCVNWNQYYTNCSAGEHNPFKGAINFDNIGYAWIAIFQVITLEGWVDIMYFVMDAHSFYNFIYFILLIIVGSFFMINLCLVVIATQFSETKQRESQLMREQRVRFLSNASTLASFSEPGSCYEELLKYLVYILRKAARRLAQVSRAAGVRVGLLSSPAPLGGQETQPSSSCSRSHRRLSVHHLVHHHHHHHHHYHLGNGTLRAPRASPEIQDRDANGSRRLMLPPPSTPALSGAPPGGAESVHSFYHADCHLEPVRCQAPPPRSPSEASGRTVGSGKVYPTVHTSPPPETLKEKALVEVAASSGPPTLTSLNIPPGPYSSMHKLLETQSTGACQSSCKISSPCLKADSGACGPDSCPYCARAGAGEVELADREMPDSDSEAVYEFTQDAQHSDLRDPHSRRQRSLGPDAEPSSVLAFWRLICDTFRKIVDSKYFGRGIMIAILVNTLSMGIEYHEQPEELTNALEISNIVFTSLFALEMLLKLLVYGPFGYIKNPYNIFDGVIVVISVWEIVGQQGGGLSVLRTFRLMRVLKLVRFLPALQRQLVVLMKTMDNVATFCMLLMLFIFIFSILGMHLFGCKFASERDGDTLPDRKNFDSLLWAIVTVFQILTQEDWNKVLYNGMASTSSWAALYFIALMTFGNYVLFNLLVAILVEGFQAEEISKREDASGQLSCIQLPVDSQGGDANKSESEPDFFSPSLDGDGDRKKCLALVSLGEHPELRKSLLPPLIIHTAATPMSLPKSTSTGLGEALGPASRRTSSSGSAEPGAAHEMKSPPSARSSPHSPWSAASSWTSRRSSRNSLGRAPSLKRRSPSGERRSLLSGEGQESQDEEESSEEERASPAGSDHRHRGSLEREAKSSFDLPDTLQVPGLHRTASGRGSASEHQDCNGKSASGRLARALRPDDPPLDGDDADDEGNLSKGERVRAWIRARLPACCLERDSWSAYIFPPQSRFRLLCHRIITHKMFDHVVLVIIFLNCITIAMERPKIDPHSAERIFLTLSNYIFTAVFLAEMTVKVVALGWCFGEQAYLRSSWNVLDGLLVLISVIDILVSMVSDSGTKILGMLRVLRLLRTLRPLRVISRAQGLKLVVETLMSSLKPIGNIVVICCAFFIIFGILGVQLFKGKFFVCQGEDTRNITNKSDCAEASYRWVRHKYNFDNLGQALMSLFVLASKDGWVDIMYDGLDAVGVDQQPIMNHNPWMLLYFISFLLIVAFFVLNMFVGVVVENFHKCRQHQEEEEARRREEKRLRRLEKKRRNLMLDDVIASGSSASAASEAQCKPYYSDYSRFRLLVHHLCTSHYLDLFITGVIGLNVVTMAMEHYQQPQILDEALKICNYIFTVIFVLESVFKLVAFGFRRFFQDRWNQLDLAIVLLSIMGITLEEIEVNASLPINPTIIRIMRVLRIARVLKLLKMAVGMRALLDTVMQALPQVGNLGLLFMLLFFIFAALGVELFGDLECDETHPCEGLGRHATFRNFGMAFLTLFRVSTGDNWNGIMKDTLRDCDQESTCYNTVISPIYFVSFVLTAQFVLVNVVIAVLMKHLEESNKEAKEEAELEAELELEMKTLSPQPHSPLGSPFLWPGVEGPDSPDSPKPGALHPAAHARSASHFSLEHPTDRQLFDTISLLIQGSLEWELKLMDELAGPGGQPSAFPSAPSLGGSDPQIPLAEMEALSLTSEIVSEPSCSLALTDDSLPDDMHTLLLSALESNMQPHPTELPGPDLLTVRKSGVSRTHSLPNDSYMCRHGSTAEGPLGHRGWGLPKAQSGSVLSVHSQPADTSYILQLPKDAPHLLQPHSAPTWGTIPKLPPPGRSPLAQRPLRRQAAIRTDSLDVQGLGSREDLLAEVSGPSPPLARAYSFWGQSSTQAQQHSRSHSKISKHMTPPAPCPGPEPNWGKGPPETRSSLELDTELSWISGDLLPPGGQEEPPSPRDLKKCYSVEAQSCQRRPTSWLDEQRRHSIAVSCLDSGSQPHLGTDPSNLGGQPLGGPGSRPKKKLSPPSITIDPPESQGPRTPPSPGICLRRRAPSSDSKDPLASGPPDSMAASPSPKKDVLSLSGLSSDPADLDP
- Procedure details: T-type calcium channel block, whole cell patch clamp (α1G)
- Condition parameters: HEK cells stably expressing human α1G; mainly non-inactivated protocol; values above 10 μM represented as 10 μM, values below 0.30 μM represented as 0.30 μM
Property name: IC50 (µM)

Please review the entries below; each comes with its answer.
{"columns": ["Smiles representation", "IC50 (µM)"],
 "data": [
  ["Cc1cc(CN[C@H]2CC[C@@H](CNC(=O)c3cc(C(F)(F)F)cc(C(F)(F)F)c3)CC2)no1", 1.24],
  ["CC(C)(C)NC(=O)CN[C@H]1CC[C@@H](CNC(=O)c2cccc(OC(F)(F)F)c2)CC1", 0.79],
  ["O=C(CN[C@H]1CC[C@H](CNC(=O)c2cc(C(F)(F)F)cc(C(F)(F)F)c2)CC1)NCC(F)(F)F", 1],
  ["Cc1ccc(-c2csc(NC(=O)C[C@H]3CC[C@@H](NC(=O)C4(c5ccccc5)CCNCC4)CC3)n2)cc1", 1.09],
  ["NC1(C(=O)N[C@H]2CC[C@H](CC(=O)Nc3cc(C(F)(F)F)cc(C(F)(F)F)c3)CC2)CCCCC1", 1.07]
]}

a = CC(C)(C)CC(=O)NCCN[C@H]1CC[C@H](CNC(=O)c2cc(C(F)(F)F)cc(C(F)(F)F)c2)CC1
b = CC1(NC(=O)CN[C@H]2CC[C@@H](CNC(=O)c3cc(F)cc(Cl)c3)CC2)CCC1
c = CN(C(=O)CN[C@H]1CC[C@@H](CNC(=O)c2cc(F)cc(Cl)c2)CC1)C1(C)CCC1
Order each entry by recorded IC50, climbing from the minimum. Would you mind listing the labels in the order asked for?
b, c, a

###

Each entry below carries its recorded pIC50.
- Target or system: human α1H T-type channels (Homo sapiens, UniProt O95180)
- Sequence (O95180 whole entry): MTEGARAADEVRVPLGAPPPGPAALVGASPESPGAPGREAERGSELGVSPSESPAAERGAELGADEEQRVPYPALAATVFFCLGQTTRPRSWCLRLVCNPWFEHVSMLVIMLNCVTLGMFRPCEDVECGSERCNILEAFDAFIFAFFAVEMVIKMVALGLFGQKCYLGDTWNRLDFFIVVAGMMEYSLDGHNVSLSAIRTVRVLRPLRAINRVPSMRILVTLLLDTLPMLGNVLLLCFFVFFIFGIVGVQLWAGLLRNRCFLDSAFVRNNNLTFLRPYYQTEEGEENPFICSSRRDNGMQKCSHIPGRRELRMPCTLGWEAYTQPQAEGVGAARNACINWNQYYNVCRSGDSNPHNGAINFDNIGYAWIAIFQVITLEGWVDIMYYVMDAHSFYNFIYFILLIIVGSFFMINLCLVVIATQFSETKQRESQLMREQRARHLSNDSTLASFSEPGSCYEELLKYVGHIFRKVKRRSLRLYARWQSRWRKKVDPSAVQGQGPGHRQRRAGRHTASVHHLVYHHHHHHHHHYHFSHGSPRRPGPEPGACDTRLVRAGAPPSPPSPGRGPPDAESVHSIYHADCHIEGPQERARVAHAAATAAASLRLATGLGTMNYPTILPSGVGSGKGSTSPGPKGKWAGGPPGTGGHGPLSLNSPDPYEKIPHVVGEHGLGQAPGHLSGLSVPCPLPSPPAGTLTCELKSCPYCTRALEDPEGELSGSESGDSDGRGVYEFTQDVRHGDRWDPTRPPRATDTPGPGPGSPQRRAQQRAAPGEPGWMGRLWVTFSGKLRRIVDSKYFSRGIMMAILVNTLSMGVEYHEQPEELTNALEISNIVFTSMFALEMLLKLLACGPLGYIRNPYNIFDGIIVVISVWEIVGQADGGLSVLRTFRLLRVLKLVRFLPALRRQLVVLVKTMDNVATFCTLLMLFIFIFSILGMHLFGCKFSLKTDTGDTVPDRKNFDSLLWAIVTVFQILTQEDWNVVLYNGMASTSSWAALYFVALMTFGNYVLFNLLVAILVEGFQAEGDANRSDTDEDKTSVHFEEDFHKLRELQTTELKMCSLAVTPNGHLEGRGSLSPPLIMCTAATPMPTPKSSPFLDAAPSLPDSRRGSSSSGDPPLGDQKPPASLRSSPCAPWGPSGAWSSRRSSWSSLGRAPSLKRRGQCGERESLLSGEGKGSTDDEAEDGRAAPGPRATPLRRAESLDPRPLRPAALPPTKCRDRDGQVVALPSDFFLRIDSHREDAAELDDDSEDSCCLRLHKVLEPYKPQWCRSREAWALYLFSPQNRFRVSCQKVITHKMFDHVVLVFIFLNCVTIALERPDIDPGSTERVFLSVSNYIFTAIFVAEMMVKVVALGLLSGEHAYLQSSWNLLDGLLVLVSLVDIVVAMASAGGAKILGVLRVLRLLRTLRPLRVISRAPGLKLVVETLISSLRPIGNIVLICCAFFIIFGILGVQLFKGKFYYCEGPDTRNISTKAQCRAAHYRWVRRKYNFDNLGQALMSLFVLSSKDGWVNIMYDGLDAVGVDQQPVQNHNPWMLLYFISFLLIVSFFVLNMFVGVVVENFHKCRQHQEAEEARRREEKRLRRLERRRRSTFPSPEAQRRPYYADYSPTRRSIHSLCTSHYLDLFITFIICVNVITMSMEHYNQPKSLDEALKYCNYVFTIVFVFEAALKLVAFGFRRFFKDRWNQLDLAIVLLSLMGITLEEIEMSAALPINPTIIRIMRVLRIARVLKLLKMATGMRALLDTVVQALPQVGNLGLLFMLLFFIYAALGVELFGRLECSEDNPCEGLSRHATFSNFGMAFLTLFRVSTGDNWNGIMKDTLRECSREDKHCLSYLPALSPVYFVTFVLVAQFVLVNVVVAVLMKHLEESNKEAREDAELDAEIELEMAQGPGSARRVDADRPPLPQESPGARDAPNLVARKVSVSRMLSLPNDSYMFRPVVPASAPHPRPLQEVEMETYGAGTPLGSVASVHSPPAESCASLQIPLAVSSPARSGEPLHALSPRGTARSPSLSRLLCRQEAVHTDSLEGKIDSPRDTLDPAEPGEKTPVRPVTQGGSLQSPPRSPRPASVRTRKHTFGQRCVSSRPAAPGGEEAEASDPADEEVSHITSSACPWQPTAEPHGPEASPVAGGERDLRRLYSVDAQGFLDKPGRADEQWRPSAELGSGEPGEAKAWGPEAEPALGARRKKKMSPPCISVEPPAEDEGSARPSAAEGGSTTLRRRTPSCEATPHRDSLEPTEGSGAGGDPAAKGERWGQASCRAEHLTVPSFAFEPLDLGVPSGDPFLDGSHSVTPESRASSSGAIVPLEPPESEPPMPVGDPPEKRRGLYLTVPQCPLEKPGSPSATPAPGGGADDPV
- Procedure details: T-type calcium channel block, whole cell patch clamp (α1H)
- Condition parameters: HEK cells stably expressing human α1H; mainly non-inactivated protocol; values above 10 μM represented as 10 μM
pIC50: −log10 of the molar value.

Please report the measured pIC50 for `O=C(C[C@H]1CC[C@@H](NC(=O)[C@@H]2C[C@@H](c3ccccc3)CN2)CC1)NCc1cccc(OC(F)(F)F)c1` tested on human α1H T-type channels (Homo sapiens, UniProt O95180).
≤ 5.00

Please report the measured pIC50 for `O=C(C[C@H]1CC[C@H](NC(=O)C2(c3ccccc3)CCNCC2)CC1)Nc1cc(C(F)(F)F)cc(C(F)(F)F)c1` tested on human α1H T-type channels (Homo sapiens, UniProt O95180).
≤ 5.00

Please report the measured pIC50 for `Cc1ccc(-c2csc(NC(=O)C[C@H]3CC[C@@H](NC(=O)C4(c5ccccc5)CCNCC4)CC3)n2)cc1` tested on human α1H T-type channels (Homo sapiens, UniProt O95180).
≤ 5.00
